# study_target: UniProt:Q13822
pIC50: −log10 of the molar value.
Note to self: values exactly at 7 are condition met. So pIC50 at or above 7 is condition met, below is condition not met.

CC1(C)CC(C(=O)N2C[C@@H]3[C@H]4CN(C(=O)c5ccc6[nH]nnc6c5)C[C@H]4[C@@H]3C2)Cc2ccccc21 (stereo partly drawn) [Example 1.055]; condition met
CCn1ccc2c(OCC(F)(F)F)c(C(=O)N3C[C@@H]4[C@H]5CN(C(=O)c6ccc7[nH]nnc7c6)C[C@H]5[C@@H]4C3)ccc21 [Example 1.082]; condition met
O=C(c1ccc(OCC(F)(F)F)nc1)N1C[C@@H]2[C@H](C1)[C@H]1CN(C(=O)c3ccc4[nH]nnc4c3)C[C@@H]21 [Example 1.099]; condition not met

Now for a further molecule.
Exercise: Please tell me: is the molecule CCOc1cc(C(=O)N2C[C@@H]3[C@H]4CN(C(=O)c5ccc6[nH]nnc6c5)C[C@H]4[C@@H]3C2)nc2ccc(C(F)(F)F)cc12 [Example 1.080] at or over 7 in terms of pIC50?
Key: condition met

====

# study_target: ATX (human His-tagged) (Homo sapiens (Human))
pIC50: −log10 of the molar value.
1 means recorded pIC50 is 8 or above; 0 means it is below 8.

Reference set, count: 5
CCOc1cc(C(=O)N2C[C@@H]3[C@H]4CN(C(=O)c5ccc6[nH]nnc6c5)C[C@H]4[C@@H]3C2)nc2ccccc12; 1
COCCCN1CC(C(=O)N2C[C@@H]3[C@H]4CN(C(=O)c5ccc6[nH]nnc6c5)C[C@H]4[C@@H]3C2)Cc2ccccc21 (some centres unmarked); 0
O=C(c1ccc2[nH]nnc2c1)N1C[C@@H]2[C@H](C1)[C@H]1CN(C(=O)c3cc4cc(Cl)ccc4[nH]3)C[C@@H]21; 0
O=C(c1ccc2[nH]nnc2c1)N1C[C@@H]2[C@H](C1)[C@H]1CN(C(=O)c3cc(OCC(F)(F)F)c4ccccc4n3)C[C@@H]21; 1
O=C(c1cc2ccccc2c(OCC2CC2)n1)N1C[C@@H]2[C@H](C1)[C@H]1CN(C(=O)[C@@H]3CCc4[nH]nnc4C3)C[C@@H]21; 1

Exercise: Threshold query (pIC50 >= 8) on `O=C(c1ccc2[nH]nnc2c1)N1C[C@@H]2[C@H](C1)[C@H]1CN(C(=O)c3cc4ccc(Cl)cc4[nH]3)C[C@@H]21`
Key: 0

Exercise: Is pIC50 at least 8? Consider `CCOc1cc(C(=O)N2C[C@@H]3[C@H]4CN(C(=O)c5ccc6[nH]nnc6c5)C[C@H]4[C@@H]3C2)nc2c1CCCC2`
Key: 0

Exercise: Textbook exercise: given the entry `Cc1ccc(C(=O)N2C[C@@H]3[C@H](C2)[C@H]2CN(C(=O)c4ccc(OCC5CC5)nn4)C[C@@H]32)cc1C` , state whether its pIC50 is greater than or equal to 8.
Key: 0

====

What follows is a record of IC50 for ATX (human His-tagged) (Homo sapiens (Human), UniProt Q13822).
Reply numerically in nM, unit not repeated.

As a guide, the following entries are already answered.
CCOc1cc(C(=O)N2C[C@@H]3[C@H](C2)[C@H]2CN(C(=O)c4ccc5[nH]nnc5n4)C[C@@H]32)nc2ccc(C(F)(F)F)cc12 [Example 1.091]; 17
O=C(/C=C/c1ccc(OC(F)(F)F)cc1)N1C[C@@H]2[C@H](C1)[C@H]1CN(C(=O)[C@@H]3CCc4[nH]nnc4C3)C[C@@H]21 [Example 1.006]; 8
CCOc1cc(C(=O)N2C[C@@H]3[C@H](C2)[C@H]2CN(C(=O)c4ccc5[nH]nnc5c4)C[C@@H]32)cc2ccccc12 [Example 1.051]; 7
O=C(c1ccc2[nH]nnc2c1)N1C[C@@H]2[C@H](C1)[C@H]1CN(C(=O)c3cc4ccccc4c(OCC(F)(F)F)n3)C[C@@H]21 [Example 1.060]; 4.7

Exercise: Quick check: IC50 on ATX (human His-tagged) (Homo sapiens (Human), UniProt Q13822), item CCOc1cc(C(=O)N2C[C@@H]3[C@H](C2)[C@H]2CN(C(=O)[C@@H]4CCc5[nH]nnc5C4)C[C@@H]32)nc2cc(Cl)ccc12 [Example 1.077] ?
Key: 7.5

====

# study_target: ATX (human His-tagged) (Homo sapiens (Human), UniProt Q13822)
pIC50: −log10 of the molar value.
Where pIC50 equals or exceeds 8, the correct label is true (1); where it does not, the label is false (0).

O=C(c1cnc(OCC(F)(F)F)c(C2CCOCC2)c1)N1C[C@@H]2[C@H](C1)[C@H]1CN(C(=O)c3ccc4[nH]nnc4c3)C[C@@H]21 [Example 1.106]; false (0)

Exercise: Reported pIC50 at or above 8? CC(C)Oc1cc(C(=O)N2C[C@@H]3[C@H](C2)[C@H]2CN(C(=O)[C@@H]4CCc5[nH]nnc5C4)C[C@@H]32)cc2ccccc12 [Example 1.059]
Key: true (1)

====

Reported values: pIC50 for ATX (human His-tagged) (Homo sapiens (Human)), one per item.
// pIC50: -log10(molar conc.)

Completed entries (count: 10):
O=C(c1cnc(OCC(F)(F)F)c(Br)c1)N1C[C@@H]2[C@H](C1)[C@H]1CN(C(=O)c3ccc4[nH]nnc4c3)C[C@@H]21 [Example 1.100]; 8.00
CCOc1cc(C(=O)N2C[C@@H]3[C@H](C2)[C@H]2CN(C(=O)c4ccc5[nH]nnc5c4F)C[C@@H]32)nc2ccccc12 [Example 1.110]; 7.49
O=C(c1ccc2[nH]nnc2c1)N1C[C@@H]2[C@H](C1)[C@H]1CN(C(=O)c3cc(OCC4CC4)c4ccccc4n3)C[C@@H]21 [Example 1.071]; 8.46
CCOc1nc(C(=O)N2C[C@@H]3[C@H](C2)[C@H]2CN(C(=O)c4ccc5[nH]nnc5n4)C[C@@H]32)cc2ccccc12 [Example 1.092]; 7.74
COc1cc(C(=O)N2C[C@@H]3[C@H](C2)[C@H]2CN(C(=O)c4ccc5[nH]nnc5c4)C[C@@H]32)cc2ccccc12 [Example 1.026]; 7.94
O=C(c1ccc2[nH]nnc2c1)N1C[C@@H]2[C@H](C1)[C@H]1CN(C(=O)c3cc4ccccc4cn3)C[C@@H]21 [Example 1.039]; 5.48
Cc1cc(C(=O)N2C[C@@H]3[C@H]4CN(C(=O)c5ccc6[nH]nnc6c5)C[C@H]4[C@@H]3C2)nc2ccccc12 [Example 1.047]; 6.69
O=C(c1ccc2[nH]nnc2c1)N1C[C@@H]2[C@H](C1)[C@H]1CN(C(=O)c3ccc4c(c3)[nH]c3ccc(Cl)cc34)C[C@@H]21 [Example 1.068]; 7.84
COc1cc2ccccc2cc1C(=O)N1C[C@@H]2[C@H]3CN(C(=O)c4ccc5[nH]nnc5c4)C[C@H]3[C@@H]2C1 [Example 1.021]; 6.58
N#Cc1ccc2[nH]c(C(=O)N3C[C@@H]4[C@H]5CN(C(=O)c6ccc7[nH]nnc7c6)C[C@H]5[C@@H]4C3)cc2c1 [Example 1.027]; 6.08

Exercise: Lab request: please report pIC50 under test system ATX (human His-tagged) (Homo sapiens (Human)) for CC(C)Oc1cc(C(=O)N2C[C@@H]3[C@H](C2)[C@H]2CN(C(=O)c4ccc5[nH]nnc5c4)C[C@@H]32)cc2c1CCCC2 [Example 1.078]
Key: 8.46

Exercise: Under ATX (human His-tagged) (Homo sapiens (Human)): pIC50 value of O=C(c1ccc2[nH]nnc2c1)N1C[C@@H]2[C@H](C1)[C@H]1CN(C(=O)N3CCc4cc(C(F)(F)F)ccc4C3)C[C@@H]21 [Example 4] ?
Key: 7.15

====

# study_target: ATX (human His-tagged) (Homo sapiens (Human), UniProt Q13822)
# protocol_text: Human ATX enzyme inhibition assay (fluorescence quenching, MR121 substrate)
# Assay type: biochemical
# stated_conditions: 30 nM ATX, 1 μM MR121 substrate, 30° C., pH 8.0
property_name: IC50 (nM)
Unit nM implied. Number only.

Answered cases to consult:
O=C(c1ccc2[nH]nnc2c1)N1C[C@@H]2[C@H](C1)[C@H]1CN(C(=O)C3CCc4ccccc4C3)C[C@@H]21 (stereo partly drawn); 224
O=C(c1ccc2c(c1)CCCC2)N1C[C@@H]2[C@H](C1)[C@H]1CN(C(=O)c3ccc4[nH]nnc4c3)C[C@@H]21; 59.2

We now examine a further compound.
Exercise: Give its IC50 value. Item: `O=C(c1ccc2[nH]nnc2c1)N1C[C@@H]2[C@H](C1)[C@H]1CN(C(=O)c3ccc(OCC(F)(F)F)cn3)C[C@@H]21`
Key: 4430

====

pIC50: recorded values
# study_target: ATX (human His-tagged) (Homo sapiens (Human), UniProt Q13822)
Bear in mind: pIC50 is minus log10 of a mol/L concentration; give just that figure.

Exercise: So what pIC50 did O=C(c1ccc2[nH]nnc2c1)N1C[C@@H]2[C@H](C1)[C@H]1CN(C(=O)c3ccc(C(F)(F)F)c(OCC(F)(F)F)n3)C[C@@H]21 [Example 1.097] get with ATX (human His-tagged) (Homo sapiens (Human), UniProt Q13822)?
Key: 7.60

Exercise: Param readout = pIC50; param system = ATX (human His-tagged) (Homo sapiens (Human), UniProt Q13822); param query = O=C(c1ccc2[nH]nnc2c1)N1CC2C(C1)C1CN(C(=O)c3cc(OCC(F)(F)F)c(C4CC4)nn3)CC21 (stereo not drawn) [Example 1.095] ; response: value
Key: 7.49
